Origin of values: patent US7157452B2

# TESTED_TARGET: purified recombinant human PARP (Homo sapiens)
# Construct: purchased Trevigan (Gaithersburg, Md.)
# Sequence (P09874 whole entry): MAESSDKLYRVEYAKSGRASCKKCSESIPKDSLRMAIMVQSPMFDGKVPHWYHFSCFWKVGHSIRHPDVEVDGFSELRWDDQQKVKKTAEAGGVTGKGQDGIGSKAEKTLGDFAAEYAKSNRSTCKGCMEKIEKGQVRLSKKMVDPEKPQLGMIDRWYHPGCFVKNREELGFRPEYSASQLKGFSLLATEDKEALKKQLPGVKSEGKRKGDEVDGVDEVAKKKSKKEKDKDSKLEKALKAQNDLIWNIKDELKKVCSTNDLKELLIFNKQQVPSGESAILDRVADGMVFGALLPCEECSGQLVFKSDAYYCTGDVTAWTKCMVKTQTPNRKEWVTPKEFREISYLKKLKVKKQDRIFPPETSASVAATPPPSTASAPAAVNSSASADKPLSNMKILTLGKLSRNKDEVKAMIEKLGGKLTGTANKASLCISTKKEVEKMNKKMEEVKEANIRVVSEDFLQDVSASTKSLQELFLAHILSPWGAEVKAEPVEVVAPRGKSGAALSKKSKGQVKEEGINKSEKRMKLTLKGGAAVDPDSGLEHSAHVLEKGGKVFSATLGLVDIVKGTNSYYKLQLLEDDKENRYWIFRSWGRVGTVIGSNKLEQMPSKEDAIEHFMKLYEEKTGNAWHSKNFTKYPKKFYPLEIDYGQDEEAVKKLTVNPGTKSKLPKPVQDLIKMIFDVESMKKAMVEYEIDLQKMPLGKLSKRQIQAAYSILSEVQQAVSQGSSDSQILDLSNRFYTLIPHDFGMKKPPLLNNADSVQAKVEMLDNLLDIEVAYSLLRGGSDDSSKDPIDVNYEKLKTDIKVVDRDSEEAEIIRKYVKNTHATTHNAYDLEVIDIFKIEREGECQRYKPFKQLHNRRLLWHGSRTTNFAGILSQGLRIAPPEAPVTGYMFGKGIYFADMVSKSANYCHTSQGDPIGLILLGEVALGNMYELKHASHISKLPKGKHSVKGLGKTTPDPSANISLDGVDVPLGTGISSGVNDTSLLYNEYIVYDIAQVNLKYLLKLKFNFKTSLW
# EXPERIMENT_SUMMARY: PARP enzyme assay with [3H]NAD, scintillation counting
# Format: biochemical
# REPORTED_CONDITIONS: Table III; read-out: approximate IC50
pIC50: −log10 of the molar value.
Measured pIC50 accompanies every entry in the list below.
MEASURE: pIC50

compound=O=c1[nH]c2ccc(S(=O)(=O)NCCCN3CCOCC3)c3c2c2c(cccc12)C3 numeric_value=7.20
compound=O=C(CN1CCN(c2ccccn2)CC1)Nc1ccc2[nH]c(=O)c3cccc4c3c2c1C4 numeric_value=6.80
compound="CN(C)CCCN1CCN(S(=O)(=O)c2ccc3[nH]c(=O)c4cccc5c4c3c2C5)CC1 [Example 21]" numeric_value=7.19
compound=O=c1[nH]c2ccc(S(=O)(=O)NCCCc3ccccc3)c3c2c2c(cccc12)C3 numeric_value=5.95
compound=O=C(CN1CCN(c2ccc(F)cc2)CC1)Nc1ccc2[nH]c(=O)c3cccc4c3c2c1C4 numeric_value=6.64
compound=O=c1[nH]c2ccc(S(=O)(=O)NCCN3CCCC3)c3c2c2c(cccc12)C3 numeric_value=7.05
compound=O=c1[nH]c2ccc(S(=O)(=O)N3CCN(Cc4ccncc4)CC3)c3c2c2c(cccc12)C3 numeric_value=6.39
compound=O=C(CN1CCN(c2ccc(F)cc2F)CC1)Nc1ccc2[nH]c(=O)c3cccc4c3c2c1C4 numeric_value=6.47
compound=O=c1[nH]c2ccc(S(=O)(=O)NN3CCOCC3)c3c2c2c(cccc12)C3 numeric_value=7.04
compound=O=C(CN1CCN(Cc2ccccc2)CC1)Nc1ccc2[nH]c(=O)c3cccc4c3c2c1C4 numeric_value=6.66
compound="CCN(CC)CCNS(=O)(=O)c1ccc2[nH]c(=O)c3cccc4c3c2c1C4 [Example 20]" numeric_value=7.11
compound=O=C(CN1CCN(CCN2CCOCC2)CC1)Nc1ccc2[nH]c(=O)c3cccc4c3c2c1C4 numeric_value=6.25
compound=CN(C)CCCN(C)CC(=O)Nc1ccc2[nH]c(=O)c3cccc4c3c2c1C4 numeric_value=6.84
compound=O=c1[nH]c2ccc(S(=O)(=O)N3CCN(CCN4CCOCC4)CC3)c3c2c2c(cccc12)C3 numeric_value=6.20
compound="O=C(CN1CCN(CC2CCCO2)CC1)Nc1ccc2[nH]c(=O)c3cccc4c3c2c1C4 (stereo not drawn)" numeric_value=6.71
compound=O=C(CNCCCN1CCOCC1)Nc1ccc2[nH]c(=O)c3cccc4c3c2c1C4 numeric_value=6.75
compound=CN1CCC(N2CCN(S(=O)(=O)c3ccc4[nH]c(=O)c5cccc6c5c4c3C6)CC2)CC1 numeric_value=6.78
compound=O=c1[nH]c2ccc(S(=O)(=O)N3CCN(c4ccncc4)CC3)c3c2c2c(cccc12)C3 numeric_value=6.03
compound=CC(=O)N1CCN(CC(=O)Nc2ccc3[nH]c(=O)c4cccc5c4c3c2C5)CC1 numeric_value=7.44
compound=CN1CCC(CN2CCN(CC(=O)Nc3ccc4[nH]c(=O)c5cccc6c5c4c3C6)CC2)CC1 numeric_value=7.02
compound=O=C(CN1CCOCC1)Nc1ccc2[nH]c(=O)c3cccc4c3c2c1C4 numeric_value=7.24
compound=CCN(CC)CCNCC(=O)Nc1ccc2[nH]c(=O)c3cccc4c3c2c1C4 numeric_value=6.88
compound="CN1CCN(CCCNS(=O)(=O)c2ccc3[nH]c(=O)c4cccc5c4c3c2C5)CC1 [Example 12]" numeric_value=7.19
compound=CN1CCC(CN2CCN(S(=O)(=O)c3ccc4[nH]c(=O)c5cccc6c5c4c3C6)CC2)CC1 numeric_value=6.78
